system: triple-negative breast cancer cell line MDA-MB-231; experiment: Cytotoxicity assay (WST-8), MDA-MB-231; assay type: cell-based; conditions: Homo sapiens, 96 h incubation
outcome_measure: pIC50
To interpret pIC50, take it as minus log10 of a concentration measured in moles per litre.

>  <item_smiles>
CC(C)(C)c1cccc(C(=O)Nc2ccc3sc(CCC(=O)NO)cc3c2)c1

>  <system_name>
triple-negative breast cancer cell line MDA-MB-231

>  <pIC50>
5.26

$$$$

Turning now to a further molecule:
Exam item: # returns recorded pIC50 (system: triple-negative breast cancer cell line MDA-MB-231) for CC(C)(C)c1ccc(C(=O)Nc2ccc3[nH]c(/C=C/C(=O)NO)cc3c2)cc1
Marked response: 5.65
